- measurement.protocol: Quantitative High-Throughput drug screen in 47 multiple myeloma cell lines against the NCATS MIPE library collection: MM1R_ATCC cell viability assay (AID 1918981); further: nearly all actives have a fitted effect of over 35% in size
- measurement.parameters: MM1R multiple myeloma cells, CellTiter-Glo viability, 48 h; series mostly up to 45.8 µM
Results filed as inconclusive are left out. The source made the active and inactive calls. The call rests on the fitted dose curve; in most records, active means well fitted cell-killing curve with a large enough effect; inconclusive means small, poorly fitted or top-dose-only effect, or effect the other way; inactive means no such curve, though single readings can be large or run the other way.
Hello, when you answer, please use one of the following outcomes: 1 (yes) for active, 0 (no) for inactive

{"compound": "CC(C)(Sc1ccc(CCN(CCCCC2CCCCC2)C(=O)NC2CCCCC2)cc1)C(=O)O", "label.class": "1 (yes)"}

Hello, I am checking results. What call was entered for COc1ccccc1-c1cccc(-c2c(O)c3cc(C#N)c(Cl)cc3[nH]c2=O)c1 ?
0 (no)

Hello, I am checking results. What call was entered for Cn1c(=O)c(F)c(Nc2ccc(I)cc2F)c2c(=O)n(C[C@@H](O)CO)cnc21 ?
0 (no)

Hello, I am checking results. What call was entered for Oc1ccc(C2CNCCc3c2cc(O)c(O)c3Cl)cc1 (stereo unspecified) ?
0 (no)

* * *

- assayed.system: Arylsulfatase A (Homo sapiens) (UniProt P15289)
- Sequence (P15289 whole entry, looked up): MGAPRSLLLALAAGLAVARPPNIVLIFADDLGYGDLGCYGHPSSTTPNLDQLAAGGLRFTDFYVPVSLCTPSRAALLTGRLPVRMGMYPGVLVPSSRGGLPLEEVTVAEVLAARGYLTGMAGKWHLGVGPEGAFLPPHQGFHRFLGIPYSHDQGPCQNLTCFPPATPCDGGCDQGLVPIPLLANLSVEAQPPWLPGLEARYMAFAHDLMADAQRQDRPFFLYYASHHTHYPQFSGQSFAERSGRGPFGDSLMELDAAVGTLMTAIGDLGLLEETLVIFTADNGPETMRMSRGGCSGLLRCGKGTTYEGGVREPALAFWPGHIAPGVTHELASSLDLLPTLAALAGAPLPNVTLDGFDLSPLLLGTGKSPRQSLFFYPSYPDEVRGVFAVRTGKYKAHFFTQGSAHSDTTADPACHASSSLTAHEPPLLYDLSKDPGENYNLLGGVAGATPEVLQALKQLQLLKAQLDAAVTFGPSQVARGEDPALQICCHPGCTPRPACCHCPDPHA
- measurement.protocol: qHTS screen for enhancers of Arylsulfatase A (ASA1): LOPAC Validation Assay (AID 720538)
- measurement.parameters: ASA enzyme activity, LOPAC qHTS enhancer assay; at 57.5 µM (top of the series); series mostly up to 57.5 µM
Records with an inconclusive call do not appear. Activity calls are given as the source filed them. Calls follow the shape of the dose curve; as a rule, active = well fitted activation curve with a large enough effect; inconclusive = small, poorly fitted or top-dose-only effect; inactive = no such curve, though single readings can be large or run the other way.
outcome.measure: outcome

For orientation, consider the following solved cases.
{"compound": "CN1CCN(CCCN2c3ccccc3Sc3ccc(C(F)(F)F)cc32)CC1", "assayed.system": "Arylsulfatase A (Homo sapiens) (UniProt P15289)", "outcome": "inactive"}
{"compound": "CCCCNc1cc(C(=O)O)cc(S(N)(=O)=O)c1Oc1ccccc1", "assayed.system": "Arylsulfatase A (Homo sapiens) (UniProt P15289)", "outcome": "inactive"}
{"compound": "OC(CCN1CCCCC1)(c1ccccc1)C1CC2C=CC1C2 (stereo not drawn)", "assayed.system": "Arylsulfatase A (Homo sapiens) (UniProt P15289)", "outcome": "inactive"}
{"compound": "Cc1cn[nH]c1", "assayed.system": "Arylsulfatase A (Homo sapiens) (UniProt P15289)", "outcome": "inactive"}
{"compound": "CCC(C)N(C)C(=O)c1cc2ccccc2c(-c2ccccc2Cl)n1 (stereo not drawn)", "assayed.system": "Arylsulfatase A (Homo sapiens) (UniProt P15289)", "outcome": "inactive"}
{"compound": "CC(=O)Oc1ccccc1C(=O)O", "assayed.system": "Arylsulfatase A (Homo sapiens) (UniProt P15289)", "outcome": "inactive"}
{"compound": "Nc1ccc(S(=O)(=O)Nc2ccnn2-c2ccccc2)cc1", "assayed.system": "Arylsulfatase A (Homo sapiens) (UniProt P15289)", "outcome": "inactive"}
{"compound": "O=C1CCc2cc(OCCCCc3nnnn3C3CCCCC3)ccc2N1", "assayed.system": "Arylsulfatase A (Homo sapiens) (UniProt P15289)", "outcome": "inactive"}
{"compound": "Cc1cnc(NC(=O)C2=C(O)c3ccccc3S(=O)(=O)N2C)s1", "assayed.system": "Arylsulfatase A (Homo sapiens) (UniProt P15289)", "outcome": "inactive"}
{"compound": "Nc1nc2c(ncn2COCCO)c(=O)[nH]1", "assayed.system": "Arylsulfatase A (Homo sapiens) (UniProt P15289)", "outcome": "inactive"}

GET /values?readout=outcome&item= Cc1[nH]c(=O)c(C#N)cc1-c1ccc2nccn2c1
inactive

GET /values?readout=outcome&item= O=C(Nc1nc2ccccc2n1CCN1CCOCC1)c1cccc([N+](=O)[O-])c1
inactive

GET /values?readout=outcome&item= N[C@@H]1CONC1=O
inactive
